# Threshold annotations
systemTested: T1, GAL4 activation domain fusion (ACT) to HAB1 (UniProt Q9CAJ0 23-511, limits assumed)
T1 construct: pACT-HAB1 fusion in yeast reporter strains; also called pACT-HAB1
T1 sequence (looked up): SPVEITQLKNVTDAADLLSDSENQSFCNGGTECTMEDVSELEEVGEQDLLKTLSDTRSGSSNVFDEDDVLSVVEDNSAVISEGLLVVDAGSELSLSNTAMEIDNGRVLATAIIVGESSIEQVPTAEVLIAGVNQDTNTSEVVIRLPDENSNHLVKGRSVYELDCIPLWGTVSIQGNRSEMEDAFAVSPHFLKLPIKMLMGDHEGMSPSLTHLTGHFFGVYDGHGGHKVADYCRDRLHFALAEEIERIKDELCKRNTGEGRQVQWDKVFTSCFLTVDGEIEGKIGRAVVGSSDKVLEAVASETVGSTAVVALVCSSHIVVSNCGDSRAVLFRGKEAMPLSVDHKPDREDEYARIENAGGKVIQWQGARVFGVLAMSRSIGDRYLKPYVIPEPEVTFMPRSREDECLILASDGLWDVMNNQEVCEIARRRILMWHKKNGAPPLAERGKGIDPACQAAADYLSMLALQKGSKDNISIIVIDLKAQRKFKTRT
runDescription: yeast two-hybrid, X-gal; lowest dichlobenil concentration giving signal
Report field: quantity (unit follows the number).

# binder, Threshold
records = [
    ("PYR1^K59R,H115N (receptor, pBD-PYR1 fusion in yeast) MPSELTPEERSELKNSIAEFHTYQLDPGSCSSLHAQRIHAPPELVWSIVRRFDKPQTYRHFIKSCSVEQNFEMRVGCTRDVIVISGLPANTSTERLDILDDERRVTGFSIIGGENRLTNYKSVTTVHRFEKENRIWTVVLESYVVDMPEGNSEDDTRMFADTVVKLNLQKLATVAEAMARNSGDGSGSQVT", "100 µM"),
    ("PYR1^K59R,E94D (receptor, not shown: small tags and cut ends, pBD-PYR1 fusion in yeast) MPSELTPEERSELKNSIAEFHTYQLDPGSCSSLHAQRIHAPPELVWSIVRRFDKPQTYRHFIKSCSVEQNFEMRVGCTRDVIVISGLPANTSTDRLDILDDERRVTGFSIIGGEHRLTNYKSVTTVHRFEKENRIWTVVLESYVVDMPEGNSEDDTRMFADTVVKLNLQKLATVAEAMARNSGDGSGSQVT", "100 µM"),
]

# input for lookup
Note Threshold for the binder shown: PYR1^K59R,A160V (receptor, not shown: small tags and cut ends, pBD-PYR1 fusion in yeast) MPSELTPEERSELKNSIAEFHTYQLDPGSCSSLHAQRIHAPPELVWSIVRRFDKPQTYRHFIKSCSVEQNFEMRVGCTRDVIVISGLPANTSTERLDILDDERRVTGFSIIGGEHRLTNYKSVTTVHRFEKENRIWTVVLESYVVDMPEGNSEDDTRMFVDTVVKLNLQKLATVAEAMARNSGDGSGSQVT 100 µM
